From: patent US20240252488A1

- study_target: MLKL (Homo sapiens)
- Sequence (Q8NB16 1-471): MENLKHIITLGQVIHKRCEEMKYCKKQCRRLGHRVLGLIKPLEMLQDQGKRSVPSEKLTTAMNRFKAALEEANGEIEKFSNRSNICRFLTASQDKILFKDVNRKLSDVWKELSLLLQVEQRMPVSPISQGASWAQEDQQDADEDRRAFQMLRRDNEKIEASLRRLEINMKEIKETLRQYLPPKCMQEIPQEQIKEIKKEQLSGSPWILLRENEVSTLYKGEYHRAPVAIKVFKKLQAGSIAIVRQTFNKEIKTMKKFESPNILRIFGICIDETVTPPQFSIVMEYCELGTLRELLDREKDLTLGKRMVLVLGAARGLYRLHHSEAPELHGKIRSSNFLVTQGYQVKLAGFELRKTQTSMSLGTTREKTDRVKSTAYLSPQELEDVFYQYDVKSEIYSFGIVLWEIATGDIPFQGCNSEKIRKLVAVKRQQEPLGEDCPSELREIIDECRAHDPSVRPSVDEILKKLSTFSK
- assay_summary: MLKL degradation assay in HepG2 cell line (western blot)
- Type: cell-based
- Set-up: endogenous in cells; host or cells: HepG2 or HaCaT
- condition_info: compound 10 μM; cell line not given
Listing of entries alongside the reported Degradation assay (Degradation %) 10 μM.
assay_metric: Degradation assay (Degradation %) 10 μM

• Nc1ncc(-c2cnn(C3CCN(C(=O)C4CCN(C(=O)C5CN(c6ccc7nnn(C8CCC(=O)NC8=O)c(=O)c7c6)C5)CC4)CC3)c2)nc1C(=O)O[C@@H](C(=O)Nc1ccc(F)cc1)c1ccccc1 (some centres unmarked) = 71.90
• COc1ccc(C(=O)N2CCC(CCN3CCC(n4cc(-c5cnc(N)c(C(=O)O[C@@H](C(=O)Nc6ccc(F)cc6)c6ccccc6)n5)cn4)CC3)CC2)cc1N1CCC(=O)NC1=O = 17.94
• Nc1ncc(-c2ccc(N3CCN(CCOCCOCCNC(=O)CNc4cccc5c4C(=O)N(C4CCC(=O)NC4=O)C5=O)CC3)nc2)nc1C(=O)OC(C(=O)Nc1ccc(F)cc1)c1ccccc1 (centres unmarked) = 30.36
• Nc1ncc(-c2cnn([C@@H]3CCN(CC4CCN(C(=O)COc5ccc6c(c5)C(=O)N(C5CCC(=O)NC5=O)C6=O)CC4)C3)c2)nc1C(=O)O[C@@H](C(=O)Nc1ccc(F)cc1)c1ccccc1 (some centres unmarked) = 85.17
• Nc1ncc(-c2cnn(C3CCN(CCC4CCN(C(=O)CCc5ccc6c(c5)CN(C5CCC(=O)NC5=O)C6=O)CC4)CC3)c2)nc1C(=O)O[C@@H](C(=O)Nc1ccc(F)cc1)c1ccccc1 (some centres unmarked) = 60.49

----------
- Test system: FADD−/− Jurkat cells
- assay_summary: Necroptosis inhibition assay, TNF-α-induced necroptosis (CellTiter-Glo 2.0)
- Format: cell-based, human
- condition_info: compound 10 μM; TNF-α 15 ng/mL, FADD−/− Jurkat cells
assay_metric: Necroptosis inhibition assay (Rescue %) 10 μM

- Nc1ncc(-c2cnn(C3CCN(CCCC4CCN(C(=O)CNc5ccc6c(c5)C(=O)N(C5CCC(=O)NC5=O)C6=O)CC4)CC3)c2)nc1C(=O)O[C@@H](C(=O)Nc1ccc(F)cc1)c1ccccc1 (stereo partly drawn): 37.9
- Nc1ncc(-c2cnn(C3CCN(CCOC4CCN(C(=O)c5cccc(C(=O)NC6CCC(=O)NC6=O)c5)CC4)CC3)c2)nc1C(=O)O[C@@H](C(=O)Nc1ccc(F)cc1)c1ccccc1 (stereo partly drawn): 41.07
- Nc1ncc(-c2cnn(C3CCN(C(=O)CCC4CCN(C(=O)CNc5cccc6nnn(C7CCC(=O)NC7=O)c(=O)c56)CC4)CC3)c2)nc1C(=O)O[C@@H](C(=O)Nc1ccc(F)cc1)c1ccccc1 (stereo partly drawn): 11.01

----------
Degradation assay (Degradation %) 10 μM by entry:
- study_target: MLKL (Homo sapiens, UniProt Q8NB16)
- assay_summary: MLKL degradation assay in HepG2 cell line (western blot)
- Format: cell-based
- Design: endogenous in cells; host or cells: HepG2 or HaCaT
- condition_info: compound 10 μM; cell line not given
assay_metric: Degradation assay (Degradation %) 10 μM

• Nc1ncc(-c2cnn(C3CCN(C(=O)CCC4CCN(C(=O)C5CCN(c6ccc7c(c6)C(=O)N(C6CCC(=O)NC6=O)C7=O)CC5)CC4)CC3)c2)nc1C(=O)O[C@@H](C(=O)Nc1ccc(F)cc1)c1ccccc1 (some centres unmarked) [TDH-418] = 58.33
• Nc1ncc(-c2cnn(C3CCN(CC4CCN(CC5CCN(C(=O)c6cccc(C(=O)NC7CCC(=O)NC7=O)c6)CC5)CC4)CC3)c2)nc1C(=O)O[C@@H](C(=O)Nc1ccc(F)cc1)c1ccccc1 (some centres unmarked) [TDH-546] = 81.41
• Nc1ncc(-c2cnn(C3CCN(CCCN4CCN(c5cccc6c5C(=O)N(C5CCC(=O)NC5=O)C6=O)CC4)CC3)c2)nc1C(=O)OC(C(=O)Nc1ccc(F)cc1)c1ccccc1 (centres unmarked) [TDH-245] = 62.75
• Nc1ncc(-c2cnn(C3CCN(CCC4CCN(C5=CC(=O)N(C6CCC(=O)NC6=O)C5=O)CC4)CC3)c2)nc1C(=O)O[C@@H](C(=O)Nc1ccc(F)cc1)c1ccccc1 (some centres unmarked) [TDH-522] = 51.16
• Nc1ncc(-c2cnn(C3CCN(CCOCCOCCOCCNC(=O)CNc4cccc5c4C(=O)N(C4CCC(=O)NC4=O)C5=O)CC3)c2)nc1C(=O)O[C@@H](C(=O)Nc1ccc(F)cc1)c1ccccc1 (some centres unmarked) [TDH-143] = 85.29

----------
- study_target: MLKL (Homo sapiens)
- assay_summary: MLKL degradation assay in HepG2 cell line (western blot)
- Format: cell-based
- Parameters: endogenous in cells; host or cells: HepG2 or HaCaT
- condition_info: compound 10 μM; cell line not given
assay_metric: Degradation assay (Degradation %) 10 μM

• Nc1ncc(-c2cnn(C3CCN(C(=O)c4cn(C5CCN(c6cccc7c6C(=O)N(C6CCC(=O)NC6=O)C7=O)CC5)cn4)CC3)c2)nc1C(=O)O[C@@H](C(=O)Nc1ccc(F)cc1)c1ccccc1 (stereo partly drawn) = 65.89
• Nc1ncc(-c2cnn(C3CCN(C(=O)COC4CCN(C(=O)C5CCN(c6cccc7c6C(=O)N(C6CCC(=O)NC6=O)C7=O)CC5)CC4)CC3)c2)nc1C(=O)O[C@@H](C(=O)Nc1ccc(F)cc1)c1ccccc1 (stereo partly drawn) = 79.77
• Nc1ncc(-c2cnn(C3CCN(CCOC4CCN(C(=O)C5CCN(c6ccc7c(c6)C(=O)N(C6CCC(=O)NC6=O)C7=O)CC5)CC4)CC3)c2)nc1C(=O)OC(C(=O)Nc1ccc(F)cc1)c1ccccc1 (stereo not drawn) = 14.59

----------
Below, each entry is listed with its recorded Kd.
- study_target: MLKL (Homo sapiens)
- Sequence (Q8NB16 1-471): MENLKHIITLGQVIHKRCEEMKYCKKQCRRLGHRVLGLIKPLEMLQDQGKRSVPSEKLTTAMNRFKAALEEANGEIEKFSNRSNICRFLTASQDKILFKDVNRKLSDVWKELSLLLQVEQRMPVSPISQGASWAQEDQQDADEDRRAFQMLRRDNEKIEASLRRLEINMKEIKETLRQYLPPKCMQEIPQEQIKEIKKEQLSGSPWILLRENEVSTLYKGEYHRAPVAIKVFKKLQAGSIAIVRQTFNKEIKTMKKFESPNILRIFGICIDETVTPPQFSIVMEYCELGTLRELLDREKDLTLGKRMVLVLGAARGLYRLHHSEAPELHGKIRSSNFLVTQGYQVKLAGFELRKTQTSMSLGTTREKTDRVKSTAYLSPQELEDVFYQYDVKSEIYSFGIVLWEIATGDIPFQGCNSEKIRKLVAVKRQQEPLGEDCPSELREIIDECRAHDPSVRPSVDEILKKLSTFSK
assay_metric: Kd (nM)

* Nc1ncc(-c2cnn(C3CCN(C(=O)COCCOCCNC(=O)C4CN(c5cccc6c5C(=O)N(C5CCC(=O)NC5=O)C6=O)C4)CC3)c2)nc1C(=O)O[C@@H](C(=O)Nc1ccc(F)cc1)c1ccccc1 (stereo partly shown) [TDH-192] | 6.1
* Nc1ncc(-c2cnn(C3CCN(C(=O)CCC4CCN(C(=O)CNc5ccc6nnn(C7CCC(=O)NC7=O)c(=O)c6c5)CC4)CC3)c2)nc1C(=O)O[C@@H](C(=O)Nc1ccc(F)cc1)c1ccccc1 (stereo partly shown) [TDH-434] | 1.4
* Nc1ncc(-c2cnn(C3CCN(CC4CCN(CC5CCN(C(=O)c6ccc7c(N8CCC(=O)NC8=O)coc7c6)CC5)CC4)CC3)c2)nc1C(=O)O[C@@H](C(=O)Nc1ccc(F)cc1)c1ccccc1 [TDH-555] | 0.22
* Nc1ncc(-c2cnn(C3CCN(C(=O)c4cn(C5CCN(C(=O)CNc6ccc7c(c6)C(=O)N(C6CCC(=O)NC6=O)C7=O)CC5)cn4)CC3)c2)nc1C(=O)O[C@@H](C(=O)Nc1ccc(F)cc1)c1ccccc1 (stereo partly shown) [TDH-361] | 1.7
* Nc1ncc(-c2cnn(C3CCN(CCOC4CCN(C(=O)COc5ccc6nnn(C7CCC(=O)NC7=O)c(=O)c6c5)CC4)CC3)c2)nc1C(=O)O[C@@H](C(=O)Nc1ccc(F)cc1)c1ccccc1 (stereo partly shown) [TDH-373] | 1.4
* COc1ccc(C(=O)N2CCC(C(=O)N3CCC(CN4CCC(CCN5CCC(n6cc(-c7cnc(N)c(C(=O)O[C@@H](C(=O)Nc8ccc(F)cc8)c8ccccc8)n7)cn6)CC5)CC4)CC3)CC2)cc1N1CCC(=O)NC1=O [TDH-511] | 0.24
* Nc1ncc(-c2cnn(C3CCN(CCOCCOCCNC(=O)C4CCN(c5ccc6c(c5)C(=O)N(C5CCC(=O)NC5=O)C6=O)CC4)CC3)c2)nc1C(=O)O[C@@H](C(=O)Nc1ccc(F)cc1)c1ccccc1 (stereo partly shown) [TDH-111] | 5.3
* Nc1ncc(-c2cnn(C3CCN(CCOCCOCCNC(=O)COc4cccc5c4C(=O)N(C4CCC(=O)NC4=O)C5=O)CC3)c2)nc1C(=O)O[C@@H](C(=O)Nc1ccc(F)cc1)c1ccccc1 (stereo partly shown) [TDH-135] | 0.91
* Nc1ncc(-c2cnn(C3CCN(C(=O)C4CCN(C(=O)C5CCN(c6cccc7nnn(C8CCC(=O)NC8=O)c(=O)c67)CC5)CC4)CC3)c2)nc1C(=O)O[C@@H](C(=O)Nc1ccc(F)cc1)c1ccccc1 (stereo partly shown) [TDH-414] | 0.79
* Nc1ncc(-c2cnn(C3CCN(CCCN4CCN(c5ccc6c(c5)C(=O)N(C5CCC(=O)NC5=O)C6=O)CC4)CC3)c2)nc1C(=O)OC(C(=O)Nc1ccc(F)cc1)c1ccccc1 (stereo not shown) [TDH-246] | 3.3
* Nc1ncc(-c2cnn(C3CCN(C(=O)C4CCN(C(=O)CNc5ccc6nnn(C7CCC(=O)NC7=O)c(=O)c6c5)CC4)CC3)c2)nc1C(=O)O[C@@H](C(=O)Nc1ccc(F)cc1)c1ccccc1 (stereo partly shown) [TDH-408] | 0.57
* Nc1ncc(-c2cnn(C3CCN(CCOCCOCCOCCNC(=O)C4CN(c5cccc6c5C(=O)N(C5CCC(=O)NC5=O)C6=O)C4)CC3)c2)nc1C(=O)O[C@@H](C(=O)Nc1ccc(F)cc1)c1ccccc1 (stereo partly shown) [TDH-141] | 8.1
* Nc1ncc(-c2cnn(C3CCN(CC4CCN(CC5CCN(C(=O)c6cccc(C(=O)NC7CCC(=O)NC7=O)c6)CC5)CC4)CC3)c2)nc1C(=O)O[C@@H](C(=O)Nc1ccc(F)cc1)c1ccccc1 (stereo partly shown) [TDH-546] | 0.4
